These data points were gathered from patent US20230391772A1.

- experimental target: HSP90a protein (Homo sapiens)
- Construct: purchased BPS Bioscience 50298
- protocol details: HSP90α-binding fluorescent polarization (FP) assay, FITC-geldanamycin probe
- assay setup: FP competition with FITC-geldanamycin, 5 nM, 120 min at 25° C.
readout label: IC50

Input: Quick one: IC50 for C=C(F)C(=O)N1CCN(c2nc(OC[C@@H]3CCN(C(=O)c4cc(CC)c(O)cc4O)C3)nc3c2CCN(c2cccc4cccc(Cl)c24)C3)C[C@@H]1CC#N [Compound 174] ?
Output: > 1000 nM

Input: Quick one: IC50 for C=C(F)C(=O)N1CCN(c2nc(N3CCC(CN4CCN(Cc5ccc(-n6c(C(=O)NCC(F)(F)F)nnc6-c6cc(CC)c(O)cc6O)cc5)CC4)CC3)nc3c2CCN(c2cccc4cccc(Cl)c24)C3)C[C@@H]1CC#N [Compound 138] ?
Output: > 1000 nM

Next:
Input: Quick one: IC50 for CCC(=O)N1CCN(c2nc(NCCC(=O)NCCc3ccc(CN4CCC(Cc5ccc(-n6c(C(=O)NCC(F)(F)F)nnc6-c6cc(C(C)C)c(O)cc6O)cc5)CC4)cc3)nc3c2CCN(c2cc(O)cc4ccccc24)C3)CC1 [Compound 149] ?
Output: 100 to 1000 nM
